Hey, just so you know, these numbers are from patent US20030068675.

biological target: ZFP SBS#613 (synthetic); test: EMSA; conditions: tags: MBP fusion
Sequence (chain, as listed by the source): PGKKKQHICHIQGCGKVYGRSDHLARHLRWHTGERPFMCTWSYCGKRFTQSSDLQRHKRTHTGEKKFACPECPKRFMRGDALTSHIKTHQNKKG
observed property: pKd
Note on units: pKd is unitless, being -log10 of a concentration expressed in mol/L.

Exercise: Quick check: pKd of TTGGCTGGGC (dsDNA) DNA 1: TTGGCTGGGC DNA 2: GCCCAGCCAA ?
Key: 8.84
